Could you please report measured inhibition at 10 µM for the items listed next?
Target: human RBP4 (Homo sapiens, UniProt P02753)
Construct: the culture supernatant containing secreted hRBP4-His was recovered; made in house; host or cells: FreeStyle 293 expression system (Invitrogen)
Test: Binding assay by Retinol-RBP4-TTR ELISA
Conditions: compound 10 μM; retinol 50 nM; His-tagged human RBP4, biotinylated human TTR; read-out: human RBP4 binding inhibitory activity (% at 10 μM)
Description: Using the Retinol-RBP4-TTR ELISA system shown below, the action of the compound of the present invention to inhibit the binding of RBP4 and retinol and TTR was evaluated. 1F: Binding Assay by Retinol-RBP4-TTR ELISA This ELISA system detects a complex with RBP4 and TTR based on the retinol dependent binding of RBP4 to TTR. […] The binding inhibitory activity of the compound was determined by 100×(positive control value−test compound value)/(positive control value−negative control value).
Please state the figure in %; there is no need to write the unit.

Lab note: need inhibition at 10 µM for `O=C(O)CC(=O)N1CC[C@@H](COc2ccccc2C2CCCC2)C1` on human RBP4 (Homo sapiens, UniProt P02753), anyone have it?
100

Lab note: need inhibition at 10 µM for O=C(O)CC(=O)N1CCC(COc2ccccc2C2CCCC2)C1 (stereo not shown) on human RBP4 (Homo sapiens, UniProt P02753), anyone have it?
100

Lab note: need inhibition at 10 µM for `O=C(O)CC(=O)N1CC[C@H](COc2ccccc2C2(C(F)(F)F)CC2)C1` on human RBP4 (Homo sapiens, UniProt P02753), anyone have it?
100

Lab note: need inhibition at 10 µM for `O=C(O)CC(=O)N1CC[C@H](COc2ccccc2C2CCCC2)C1` on human RBP4 (Homo sapiens, UniProt P02753), anyone have it?
100

Lab note: need inhibition at 10 µM for `O=C(O)CC(=O)N1CC[C@H](COc2ccccc2C2CCC2)C1` on human RBP4 (Homo sapiens, UniProt P02753), anyone have it?
98

Lab note: need inhibition at 10 µM for `CC1(c2ccccc2OC[C@H]2CCN(C(=O)CC(=O)O)C2)CC1` on human RBP4 (Homo sapiens, UniProt P02753), anyone have it?
98

Lab note: need inhibition at 10 µM for `O=C(O)CC(=O)N1CC[C@H](COc2ccccc2C2CCCCC2)C1` on human RBP4 (Homo sapiens, UniProt P02753), anyone have it?
100
